Test system: OVCAR-8 ovarian
ASSAY OVERVIEW: NCI tumour cell line growth inhibition, 48 h
TGI values by entry
# output: bare number, implied unit µM

TGI reading for `O=C(N/C(=C\c1ccc(Br)cc1)c1nc2ccccc2[nH]1)c1ccccc1` : 40

***
TGI reading for Clc1cccc(N2CCN(CCCN3CCc4c([nH]c5ccccc45)C3c3cccnc3)CC2)c1 (stereo not given) : 26

---

Tested on: OVCAR-4 ovarian
ASSAY OVERVIEW: NCI tumour cell line growth inhibition, 48 h; in the data active = GI50 below about 0.43 µM; inactive = the rest
Select the matching outcome among active, inactive

QUERY: Record request — test call for `CN1CCN(CCOc2ccc(-c3cnc4c(-c5cccc(F)c5)cnn4c3)cc2)CC1`
RESULT: inactive

QUERY: Record request — test call for `CC1=C2C(=CC(C)(C)[C@@H]2O)C(=O)[C@](C)(O)C12CC2`
RESULT: active

QUERY: Record request — test call for C=C(C)C1CC/C(C)=C/CC[C@]2(C)O[C@@H]2CCC2=CC1OC2=O (some centres undefined)
RESULT: inactive

QUERY: Record request — test call for `COC(=O)C12CC(NC(=O)c3csc([C@@H](C[C@H](C(C)C)N(C)C(=O)[C@@H](NC(=O)[C@H]4CCCCN4C)C4CC4)OC(C)=O)n3)(C1)C2`
RESULT: inactive

---

TGI values by entry
Tested on: SK-MEL-2 melanoma
ASSAY OVERVIEW: NCI tumour cell line growth inhibition, 48 h

Examples with their reported TGI follow.
TGI reading for `Cl/C(N=Nc1ccccc1)=N/Nc1ccccc1` : > 100 µM

TGI reading for `O=C(N/C(=C\c1ccc(Br)cc1)c1nc2ccccc2[nH]1)c1ccccc1` : 30.9 µM

TGI reading for `CNc1ccc2ncccc2c1[N+](=O)[O-]` : > 100 µM

***
TGI reading for `CCN(CC)CCCNC(=O)c1cc2cc(NC(=O)c3cc4cc([N+](=O)[O-])ccc4[nH]3)ccc2[nH]1` : > 100 µM

TGI reading for `CCc1cccc(C)c1N1C(=O)C(=O)C(c2nc3ccccc3o2)C(=O)C1=O` : > 100 µM

---

GI50 values by entry
Tested on: OVCAR-8 ovarian
ASSAY OVERVIEW: NCI tumour cell line growth inhibition, 48 h

Examples with their reported GI50 follow.
GI50 reading for `O=C(/C=C/c1ccc(O)c(O)c1)NCc1c[nH]c2ccccc12` : 56.6 µM

GI50 reading for `CCn1c(-c2cc3c([nH]c4ccccc43)c(-c3cccc(O)c3)n2)n[nH]c1=S` : 3.96 µM

GI50 reading for `O=c1c2cc(-c3ccccc3)sc2ncn1Cc1ccc(Cl)c(Cl)c1` : 18.6 µM

GI50 reading for NS(=O)(=O)c1ccc(N2N=C3c4ccccc4CC3C2c2cccs2)cc1 (stereo not given) : 15.3 µM

Next up:
GI50 reading for `CCOC(=O)c1c(C)n(Cc2ccc(Cl)cc2Cl)c2c1cc1oc(=O)c(=O)n3cnc2c13` : 7.68 µM

---

Tested on: OVCAR-3 ovarian
ASSAY OVERVIEW: NCI tumour cell line growth inhibition, 48 h
GI50 values by entry

Examples with their reported GI50 follow.
GI50 reading for `COc1ccc(Nc2nc3ccccc3c3occc23)cc1` : 7.85 µM

GI50 reading for `O=S1(=O)N(Cc2ccccc2)[C@@H](Cc2ccccc2)[C@H](O)[C@H](O)[C@H](Cc2ccccc2)N1Cc1ccccc1` : 2.9 µM

GI50 reading for `Cc1ccc2nc(-c3ccc(OCC(=O)N=Nc4c(O)[nH]c5ccccc45)cc3)[nH]c2c1` : 1.97 µM

***
GI50 reading for `COc1ccc2c(c1OC)-c1c(c3ccc([N+](=O)[O-])cc3c(=O)n1CCCBr)C2=O` : > 100 µM

GI50 reading for NCCCCC1NC(=O)C(CC(=O)O)NC(=O)CNC(=O)C(CCCN=C(N)N)NC(=O)C(N)CSSCC(C(=O)O)NC(=O)C(CC(=O)O)NC(=O)C2CCCN2C(=O)CNC1=O (centres undefined) : > 100 µM

GI50 reading for `O=C(Nc1ccc(F)cc1F)c1cc(Cl)ccc1O` : 0.955 µM

GI50 reading for `C1=C/COCc2cc(ccc2OCCN2CCCC2)Nc2nccc(n2)-c2ccc(o2)COC/1` : 1.99 µM

GI50 reading for `O=C(/C=C/c1ccc(O)c(O)c1)NCc1c[nH]c2ccccc12` : 28.4 µM

GI50 reading for `COc1cccc(CN(C)c2ccc(CO)c(Cl)c2)c1` : 2.31 µM

Values compiled from PubChem BioAssay (NCI).
